# Test summary: Three time point assay for plasma, brain and testes distribution after oral dosing
# Assay type: in vivo, rat
# Condition info: rat, oral dosing, time point 7 h
Observable: Kp brain/plasma
I only need the number, thanks.

Lab note: measured Kp brain/plasma of COc1ccn2c(C(=O)Nc3cc(-c4noc(CC(O)C(F)F)n4)ccc3C)cnc2c1 (single isomer, unassigned) was 0.09

Lab note: measured Kp brain/plasma of Cc1ccc(-c2noc(CC(O)C(F)F)n2)cc1NC(=O)c1cnc2ccccn12 (stereo not shown) was 0.07

Lab note: measured Kp brain/plasma of Cc1ccc(-c2noc([C@H]3C[C@@H]3F)n2)cc1NC(=O)c1cnc2cc(OC(C)C)ccn12 was 0.15

Lab note: measured Kp brain/plasma of Cc1ccc(-c2noc([C@H]3C[C@@H]3F)n2)cc1NC(=O)c1cnc2cc(OC(F)(F)F)ccn12 was 0.36

###

# Measured target: wtKIT (Homo sapiens, UniProt P10721)
# Construct: 1888289AM in the reaction mixtures
# Sequence (P10721 26-976): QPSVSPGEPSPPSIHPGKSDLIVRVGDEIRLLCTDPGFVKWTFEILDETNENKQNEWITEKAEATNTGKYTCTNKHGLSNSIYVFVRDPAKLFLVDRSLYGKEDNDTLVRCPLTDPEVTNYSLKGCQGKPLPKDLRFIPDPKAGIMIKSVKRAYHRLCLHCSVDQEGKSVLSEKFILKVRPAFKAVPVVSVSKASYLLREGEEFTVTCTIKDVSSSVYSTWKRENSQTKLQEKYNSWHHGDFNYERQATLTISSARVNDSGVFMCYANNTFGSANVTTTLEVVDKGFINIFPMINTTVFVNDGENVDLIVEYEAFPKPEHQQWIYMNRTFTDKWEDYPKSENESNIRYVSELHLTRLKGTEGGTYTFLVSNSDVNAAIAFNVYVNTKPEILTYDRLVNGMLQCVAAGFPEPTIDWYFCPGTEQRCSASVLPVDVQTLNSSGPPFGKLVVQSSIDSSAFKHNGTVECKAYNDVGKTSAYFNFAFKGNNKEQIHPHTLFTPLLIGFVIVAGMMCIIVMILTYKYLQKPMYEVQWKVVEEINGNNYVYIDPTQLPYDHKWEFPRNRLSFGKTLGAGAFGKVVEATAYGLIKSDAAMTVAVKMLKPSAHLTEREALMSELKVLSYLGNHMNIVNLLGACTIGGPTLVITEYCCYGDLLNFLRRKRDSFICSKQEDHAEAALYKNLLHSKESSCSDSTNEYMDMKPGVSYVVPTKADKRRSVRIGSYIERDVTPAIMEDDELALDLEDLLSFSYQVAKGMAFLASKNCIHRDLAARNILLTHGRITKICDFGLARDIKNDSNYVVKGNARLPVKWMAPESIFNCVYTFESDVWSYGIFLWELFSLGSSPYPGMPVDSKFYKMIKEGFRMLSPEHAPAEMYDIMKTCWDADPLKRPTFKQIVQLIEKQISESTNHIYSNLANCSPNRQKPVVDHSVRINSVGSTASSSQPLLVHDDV
# Test summary: Caliper biochemical assay, wtKIT
# Condition info: Table 6, read-out: KIT Biochemical IC50 avg
For each of the molecules below, state its IC50.

Summary line: Cc1ccc(-c2noc(C3CCN3)n2)cc1NC(=O)c1cnc2ccccn12 (racemic) [Compound I-394] , wtKIT (Homo sapiens, UniProt P10721), reported IC50 = ≤ 50 nM

Summary line: Cc1ccc(-c2noc(C3CCS(=O)(=O)N3)n2)cc1NC(=O)c1cnc2ccccn12 (racemic) [Compound I-330] , wtKIT (Homo sapiens, UniProt P10721), reported IC50 = ≤ 50 nM

Summary line: CCN1CC[C@H]1c1nc(-c2ccc(C)c(NC(=O)c3cnc4ccccn34)c2)no1 (racemic) [Compound I-180] , wtKIT (Homo sapiens, UniProt P10721), reported IC50 = ≤ 50 nM

Summary line: COCc1ccn2c(C(=O)Nc3cc(-c4noc(C5CN(C(=O)OC)C5)n4)ccc3C)cnc2c1 [Compound I-140] , wtKIT (Homo sapiens, UniProt P10721), reported IC50 = ≤ 50 nM

Summary line: Cc1ccc(-c2noc([C@H]3C[C@@H]3F)n2)cc1NC(=O)c1cnc2cc(Br)ccn12 [Compound I-383] , wtKIT (Homo sapiens, UniProt P10721), reported IC50 = ≤ 50 nM

Summary line: Cc1ccc(-c2noc(C3CCC(=O)N3C)n2)cc1NC(=O)c1cnc2ccccn12 (racemic) [Compound I-326] , wtKIT (Homo sapiens, UniProt P10721), reported IC50 = 50 to 500 nM

Summary line: COC(=O)CS(=O)(=O)N1CCC1c1nc(-c2ccc(C)c(NC(=O)c3cnc4ccccn34)c2)no1 (stereo not shown) [Compound I-197] , wtKIT (Homo sapiens, UniProt P10721), reported IC50 = ≤ 50 nM

Summary line: Cc1ccc(-c2noc([C@H]3CCC(=O)N3)n2)cc1NC(=O)c1cnc2ccccn12 (racemic) [Compound I-327] , wtKIT (Homo sapiens, UniProt P10721), reported IC50 = 50 to 500 nM

Summary line: CCOC1CC(c2nc(-c3ccc(C)c(NC(=O)c4cnc5ccccn45)c3)no2)C1 (stereo not shown) [Compound I-309] , wtKIT (Homo sapiens, UniProt P10721), reported IC50 = ≤ 50 nM

Summary line: Cc1ccc(-c2noc(C3(C)CC(F)C3)n2)cc1NC(=O)c1cnc2ccccn12 (stereo not shown) [Compound I-386] , wtKIT (Homo sapiens, UniProt P10721), reported IC50 = ≤ 50 nM

Summary line: Cc1cc(C)c(-c2noc(C3CC3(F)F)n2)cc1NC(=O)c1cnc2ccccn12 (racemic) [Compound I-129] , wtKIT (Homo sapiens, UniProt P10721), reported IC50 = ≤ 50 nM

Summary line: Cc1ccc(-c2noc(CO)n2)cc1NC(=O)c1cnc2ccccn12 [Compound I-337] , wtKIT (Homo sapiens, UniProt P10721), reported IC50 = ≤ 50 nM

Summary line: Cc1ccc(-c2noc([C@H]3CCN(C(=O)OC(C)(C)C)C3)n2)cc1NC(=O)c1cnc2ccccn12 [Compound I-398] , wtKIT (Homo sapiens, UniProt P10721), reported IC50 = 50 to 500 nM

Summary line: Cc1ccc(-c2noc([C@@H]3CCN3S(=O)(=O)c3ccccc3)n2)cc1NC(=O)c1cnc2ccccn12 [Compound I-186] , wtKIT (Homo sapiens, UniProt P10721), reported IC50 = 50 to 500 nM

Summary line: COC(=O)C1CC(c2nc(-c3ccc(C)c(NC(=O)c4cnc5ccccn45)c3)no2)C1 (stereo not shown) [Compound I-342] , wtKIT (Homo sapiens, UniProt P10721), reported IC50 = ≤ 50 nM

Summary line: Cc1ccc(-c2noc(C3CCC(F)C3)n2)cc1NC(=O)c1cnc2ccccn12 (racemic) [Compound I-319] , wtKIT (Homo sapiens, UniProt P10721), reported IC50 = ≤ 50 nM

###

# Measured target: wtKIT (Homo sapiens)
# Construct: 1888289AM in the reaction mixtures
# Test summary: HTRF biochemical assay, wtKIT (phosphorylation of a peptide substrate)
# Condition info: Table 4
For each of the molecules below, state its IC50.

Summary line: COCc1ccn2c(C(=O)Nc3cc(-c4noc(C(C)O)n4)ccc3C)cnc2c1 (stereo not drawn) [Compound I-735] , wtKIT (Homo sapiens), reported IC50 = 500 to 5000 nM

Summary line: Cc1ccc(-c2noc([C@H]3C[C@@H]3F)n2)cc1NC(=O)c1cnc2cc(COC[C@H](O)C(F)F)ccn12 [Compound I-501] , wtKIT (Homo sapiens), reported IC50 = ≤ 50 nM

Summary line: COc1ccn2c(C(=O)Nc3cc(-c4noc(CC5CCCO5)n4)ccc3C)cnc2c1 (stereo not drawn) [Compound I-582] , wtKIT (Homo sapiens), reported IC50 = ≤ 50 nM

Summary line: COC(=O)N1CC(c2nc(-c3ccc(C)c(NC(=O)c4cnc5ccc(OC[C@H](C)O)cn45)c3)no2)C1 [Compound I-246] , wtKIT (Homo sapiens), reported IC50 = 50 to 500 nM

Summary line: Cc1ccc(-c2noc([C@H](C)O)n2)cc1NC(=O)c1cnc2cc(-c3cscn3)ccn12 [Compound I-721] , wtKIT (Homo sapiens), reported IC50 = ≤ 50 nM

Summary line: Cc1ccc(-c2noc([C@H]3C[C@@H]3F)n2)cc1NC(=O)c1cnc2cc(COCC3(O)COC3)ccn12 [Compound I-490] , wtKIT (Homo sapiens), reported IC50 = ≤ 50 nM

Summary line: Cc1ccc(-c2noc(C(C)O)n2)cc1NC(=O)c1cnn2cc(-c3ccn(C)n3)ccc12 (stereo not drawn) [Compound I-730] , wtKIT (Homo sapiens), reported IC50 = ≤ 50 nM

Summary line: Cc1ccc(-c2noc([C@H]3C[C@@H]3F)n2)cc1NC(=O)c1cnc2cc(COCC(C)O)ccn12 (single isomer, unassigned) [Compound I-469] , wtKIT (Homo sapiens), reported IC50 = ≤ 50 nM

Summary line: Cc1ccc(-c2noc(CC(O)C3COC3)n2)cc1NC(=O)c1cnc2ccccn12 (stereo not drawn) [Compound I-591] , wtKIT (Homo sapiens), reported IC50 = 50 to 500 nM

Summary line: COCCOCc1ccn2c(C(=O)Nc3cc(-c4noc([C@H]5C[C@@H]5F)n4)ccc3C)cnc2c1 [Compound I-84] , wtKIT (Homo sapiens), reported IC50 = ≤ 50 nM

Summary line: Cc1ccc(-c2noc([C@H]3C[C@@H]3F)n2)cc1NC(=O)c1cnc2cc3c(cn12)COC3C (single isomer, unassigned) [Compound I-470] , wtKIT (Homo sapiens), reported IC50 = ≤ 50 nM

Summary line: Cc1ccc(-c2noc([C@H]3C[C@@H]3F)n2)cc1NC(=O)c1cnc2ccc(COCCO)cn12 [Compound I-453] , wtKIT (Homo sapiens), reported IC50 = ≤ 50 nM

Summary line: Cc1nc(-c2ccc(C)c(NC(=O)c3cnc4cc(Cl)ccn34)c2)no1 [Compound I-675] , wtKIT (Homo sapiens), reported IC50 = ≤ 50 nM

Summary line: Cc1ccc(-c2noc([C@H]3C[C@@H]3F)n2)cc1NC(=O)c1cnc2cc(Cl)c(F)cn12 [Compound I-613] , wtKIT (Homo sapiens), reported IC50 = ≤ 50 nM

Summary line: Cc1ccc(-c2noc(C(C)O)n2)cc1NC(=O)c1cnc2cc(F)ccn12 (stereo not drawn) [Compound I-741] , wtKIT (Homo sapiens), reported IC50 = 500 to 5000 nM

Summary line: COc1ccc2ncc(C(=O)Nc3cc(-c4noc(C[C@@H](C)O)n4)ccc3C)n2c1 [Compound I-119] , wtKIT (Homo sapiens), reported IC50 = ≤ 50 nM

Summary line: COc1ccn2c(C(=O)Nc3cc(-c4noc(CC5COC5)n4)ccc3C)cnc2c1 [Compound I-633] , wtKIT (Homo sapiens), reported IC50 = ≤ 50 nM

Summary line: Cc1ccc(-c2noc(CC(O)C(F)F)n2)cc1NC(=O)c1cnc2cc(COCC(C)N(C)C(=O)OC(C)(C)C)ccn12 (stereo not drawn) [Compound I-600] , wtKIT (Homo sapiens), reported IC50 = 50 to 500 nM

Summary line: Cc1ccc(-c2noc([C@H]3C[C@@H]3F)n2)cc1NC(=O)c1cnc2ccc(-c3ccn(C)n3)cn12 [Compound I-531] , wtKIT (Homo sapiens), reported IC50 = ≤ 50 nM

Summary line: Cc1ccc(-c2noc(C3CC(N)C3)n2)cc1NC(=O)c1cnc2cc(Cl)ccn12 (stereo not drawn) [Compound I-746] , wtKIT (Homo sapiens), reported IC50 = 500 to 5000 nM

Summary line: Cc1ccc(-c2noc(CC(C)O)n2)cc1NC(=O)c1cnc2cc(F)ccn12 (stereo not drawn) [Compound I-606] , wtKIT (Homo sapiens), reported IC50 = 50 to 500 nM

Summary line: Cc1ccc(-c2noc([C@H]3C[C@@H]3F)n2)cc1NC(=O)c1cnc2cc(COCC(=O)O)ccn12 [Compound I-477] , wtKIT (Homo sapiens), reported IC50 = ≤ 50 nM

Summary line: COc1ccn2c(C(=O)Nc3cc(-c4noc(CC5CC(F)(F)C5)n4)ccc3C)cnc2c1 [Compound I-91] , wtKIT (Homo sapiens), reported IC50 = ≤ 50 nM

Summary line: Cc1ccc(-c2noc(C[C@H](O)C(F)F)n2)cc1NC(=O)c1cnc2cc(COCc3nc[nH]n3)ccn12 [Compound I-587] , wtKIT (Homo sapiens), reported IC50 = ≤ 50 nM

Summary line: COc1ccn2c(C(=O)Nc3cc(-c4noc(CC5CCCCO5)n4)ccc3C)cnc2c1 (stereo not drawn) [Compound I-592] , wtKIT (Homo sapiens), reported IC50 = ≤ 50 nM

Summary line: Cc1ccc(-c2noc(N3CC(F)(F)C3)n2)cc1NC(=O)c1cnn2cc(F)ccc12 [Compound I-626] , wtKIT (Homo sapiens), reported IC50 = 50 to 500 nM

Summary line: Cc1ccc(-c2noc([C@H]3C[C@@H]3F)n2)cc1NC(=O)c1cnc2ccc(Cl)cn12 [Compound I-102] , wtKIT (Homo sapiens), reported IC50 = ≤ 50 nM

Summary line: Cc1ccc(-c2noc([C@@H]3CC4(CC4)CN3)n2)cc1NC(=O)c1cnc2cc(-c3cscn3)ccn12 [Compound I-635] , wtKIT (Homo sapiens), reported IC50 = ≤ 50 nM

Summary line: COc1ccn2c(C(=O)Nc3cc(-c4noc(-c5ccc(C)cn5)n4)ccc3C)cnc2c1 [Compound I-556] , wtKIT (Homo sapiens), reported IC50 = ≤ 50 nM

Summary line: CCC(O)Cc1nc(-c2ccc(C)c(NC(=O)c3cnc4ccccn34)c2)no1 (stereo not drawn) [Compound I-526] , wtKIT (Homo sapiens), reported IC50 = ≤ 50 nM

Ref: patent US20240254119A1
